Target: T1, C-terminally FLAG-tagged human Gas6 recombinant protein (hGas6-F) (human, UniProt Q14393 31-678, gamma-carboxylated glutamic acid residues in the Gla domain (producer cells co-express rat VKOR and human GGCX); positions not given)
T1 construct: also called human Gas6-F; human Gas6 protein
T1 sequence: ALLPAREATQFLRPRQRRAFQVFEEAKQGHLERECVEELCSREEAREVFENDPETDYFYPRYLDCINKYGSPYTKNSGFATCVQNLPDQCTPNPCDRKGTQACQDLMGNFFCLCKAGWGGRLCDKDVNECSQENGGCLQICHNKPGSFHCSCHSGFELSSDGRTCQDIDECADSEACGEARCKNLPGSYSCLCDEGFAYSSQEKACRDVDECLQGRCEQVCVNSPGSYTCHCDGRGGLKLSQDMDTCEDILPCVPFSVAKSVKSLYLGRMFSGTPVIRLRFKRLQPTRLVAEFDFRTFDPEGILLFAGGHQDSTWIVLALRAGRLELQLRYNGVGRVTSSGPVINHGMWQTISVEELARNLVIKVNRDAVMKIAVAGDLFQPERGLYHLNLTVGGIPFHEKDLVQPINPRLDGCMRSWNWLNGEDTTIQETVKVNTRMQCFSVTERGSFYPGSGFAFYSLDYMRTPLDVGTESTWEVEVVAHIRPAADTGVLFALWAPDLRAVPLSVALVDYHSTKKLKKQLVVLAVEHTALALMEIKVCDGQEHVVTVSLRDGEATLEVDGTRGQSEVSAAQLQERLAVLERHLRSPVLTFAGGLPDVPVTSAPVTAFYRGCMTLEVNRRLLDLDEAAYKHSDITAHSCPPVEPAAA
Assay: SPR Biacore T100, captured antibody, Gas6 analyte, first test
Assay endpoint: koff (s⁻¹)
Give the value, in units of s⁻¹, as a plain number.

# Binder, Test value
measured = [
    ("hzKM5321 LV1cHV0 antibody (antibody, V domains shown, Humanized; variant human IgG4 constant region (EU S228P, L235E, R409K), human kappa; also called B-05; LV1cHV0) VH: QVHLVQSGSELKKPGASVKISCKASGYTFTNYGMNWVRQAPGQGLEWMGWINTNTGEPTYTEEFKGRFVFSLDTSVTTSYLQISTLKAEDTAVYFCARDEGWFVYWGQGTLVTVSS VL: ETTLTQSPSSLSVSVGDRVTITCITSTDIDDDMNWYQQKPGKAPKLLISEGNTLRPGVPSRFSGSGSGTDFTLTISSLQPEDFATYYCLQTDSVPLTFGQGTKVEIK", 0.000511),
]

Next:
Please list koff recorded for the binder hzKM5320 LV6HV0 antibody (antibody, V domains shown, Humanized; variant human IgG4 constant region (EU S228P, L235E, R409K), human kappa; also called A-09) VH: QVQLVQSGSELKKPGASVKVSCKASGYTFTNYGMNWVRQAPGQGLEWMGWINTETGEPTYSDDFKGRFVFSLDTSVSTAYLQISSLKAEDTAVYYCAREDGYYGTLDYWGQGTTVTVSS VL: DIVMTQSPDSLAVSAGERVTINCKASQSVSNDVAWYQQKPGQSPKVLIYYASNRYTGVPDRFSGSGSGTDFTFTISSVQAEDVAVYFCQQDYSSPWTFGQGTKLEIK 0.000216
